Origin of the recorded values: patent US5690957A

Listed below: Hypotensive effect, Maximum hypotension on dose (A) values for each entry.
Assay: Hypotensive effect in anesthetized rats (carotid artery blood pressure)
Type: in vivo
Details: at dose (A) giving AUC = 771, i.v., rat; Examples as liposome formulation, comparative compound as lipid emulsion
The reply should be a number in mmHG, with the unit left off.

CCCCCCCCCCCCCCCCOCC(=O)OCCOC(=O)CCCCCC[C@H]1C(=O)C[C@@H](O)[C@@H]1/C=C/[C@@H](O)CCCCC [Example 2, PGE1 2-(hexadecyloxyacetoxy)ethyl ester] ... 6.1
CCCCCCCCCC(=O)OC(C)OC(=O)CCCCCC[C@H]1C(=O)C[C@@H](O)[C@@H]1/C=C/[C@@H](O)CCCCC (stereo partly shown) [Comparative compound, PGE1 1-decanoyloxyethyl ester, reference compound] ... 30.2
CCCCCCCCCCCC(=O)OCCOC(=O)CCCCCC[C@H]1C(=O)C[C@@H](O)[C@@H]1/C=C/[C@@H](O)CCCCC [Example 1, PGE1 (dodecanoyloxy)ethyl ester] ... 4.3

Kindly consider the entry below.
What the record says about CCCCCCCCCCCCOCC(=O)OCCOC(=O)CCCCCC[C@H]1C(=O)C[C@@H](O)[C@@H]1/C=C/[C@@H](O)CCCCC [Example 3, PGE1 2-(dodecyloxyacetoxy)ethyl ester] : Hypotensive effect, Maximum hypotension on dose (A) is 2.8
